Taken from paper PMC8248824.

# SYSTEM: T1, HER3 extracellular domain 4, biotinylated (N-terminal AviTag and His6 tag) (human, biotin (in vitro biotinylation, AviTag))
# T1 construct: HER3 (ErbB3) extracellular domain 4, human, residues 500-643 of UniProt entry P21860; also called HER3d4; HER3 domain 4; source: Sf9 insect cells (baculovirus), secreted, purified (IMAC, Superdex 75), biotinylated in vitro; not shown: AviTag, N-terminal, kept
# T1 chain: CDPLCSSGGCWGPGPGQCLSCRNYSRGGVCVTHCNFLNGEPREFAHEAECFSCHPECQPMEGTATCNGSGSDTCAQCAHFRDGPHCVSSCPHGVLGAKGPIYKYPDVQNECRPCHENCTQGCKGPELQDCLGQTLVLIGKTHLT
# PROTOCOL SUMMARY: SPR; ProteOn XPR36, NeutrAvidin NLC chip; biotinylated HER3d4 immobilised; monomeric DARPins injected at 2.5, 7.5, 22, 67 and 200 nM (duplicates), 60 µl/min, 5 min association, 5 min dissociation; PBS with 0.005% Tween-20; kinetic titration model
# RUN CONDITIONS: both partners purified
QUANTITY MEASURED: Kd (nM)
Provide the reading as a plain figure in nM.

INSERT INTO results (binder, measured) VALUES
  ('DARPin D2 (designed binder, N2C DARPin selected by ribosome display; source: E. coli XL1 Blue, purified (HisPur Cobalt Spin Plates)) GSDLGKKLLEAARAGQDDEVRVLMANGADVNAFDHNGSTPLHLAAAIGHLEIVEVLLKYGADVNAEDNWGNTPLHQAAWVGHREIVEVLLKYGADVNAQDKFGKTAFDISIDNGNEDLAEILQKLN', 5.7);

Now look at this entry.
Note to self: Kd recorded for DARPin D8 (designed binder, N3C DARPin selected by ribosome display; source: E. coli XL1 Blue, purified (HisPur Cobalt Spin Plates)) GSDLGKKLLEAARAGQDDEVRILMANGADVNAQDVSGQTPLHLAAIWGHLEIVEVLLKTGADVNAWDHWGNTPLHLAAWQGHLEIVEVLLKAGADVNAKDSEGFTPLHLAAWWGHLEIVEVLLKHGADVNAQDKFGKTPFDLAIDNGNEDIAEVLQKAAKLN was 5
